Ref: patent US11261186B2

pEC50: recorded values
# assay.system: hGPR120 (Homo sapiens, UniProt Q5NUL3)
# Construct: expressed in transfected cells; host or cells: CHO-K1
# Sequence (Q5NUL3 whole entry): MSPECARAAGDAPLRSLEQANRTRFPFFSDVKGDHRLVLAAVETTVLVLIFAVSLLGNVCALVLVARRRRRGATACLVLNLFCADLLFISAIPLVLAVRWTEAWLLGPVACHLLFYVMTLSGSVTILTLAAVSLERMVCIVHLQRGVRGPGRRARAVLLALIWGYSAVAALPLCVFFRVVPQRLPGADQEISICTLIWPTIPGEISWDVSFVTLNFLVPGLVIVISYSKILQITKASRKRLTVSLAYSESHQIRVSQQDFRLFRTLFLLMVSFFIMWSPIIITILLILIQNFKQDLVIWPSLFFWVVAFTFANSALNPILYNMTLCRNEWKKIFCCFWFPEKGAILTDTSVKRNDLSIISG
# assay.info: Measurement of Activity of GPR120 Agonist (Cell-Based Assay), Calcium 5 dye fluorescence
# setup.conditions: CHO-K1 cells expressing Ga16 and hGPR120
pEC50: −log10 of the molar value.

Examples with their reported pEC50 follow.
# compound.string, observable, data.value
rows = [
    ("CCCSc1ncccc1-c1cc(F)c(CCCCC(=O)O)c(F)c1", "pEC50", "> 6.70"),
    ("Cc1nc(-c2cc(F)c(N3CCC(CC(=O)O)CC3)c(F)c2)nc(OC2CCC2)c1C", "pEC50", "4.70 to 5.70"),
    ("Cc1cc(Oc2ccc(F)c(F)c2)nc(-c2cc(F)c(N3CCC(CC(=O)O)CC3)c(F)c2)n1", "pEC50", "5.70 to 6.70"),
]

Next molecule, pEC50 to be filled in.
Task: Fill in pEC50 for record Cc1cc(OCC2CC2)nc(-c2cc(F)c(OCCCC(=O)O)c(Cl)c2)c1
Output: > 6.70
